List of MIC values.
Tested on: Staph. aureus 133
TEST_METHOD_NOTES: Minimum inhibitory concentration (MIC) in vitro, liquid medium test tube series dilution test
Format: cell-based
CONDITION: 24 hours incubation at 37° C
MEASURE: MIC

MOLECULE | MEASURE | RECORDED_VALUE
CC1(C)S[C@@H]2[C@H](NC(=O)C3CC3C#N)C(=O)N2[C@H]1C(=O)O (stereo partly drawn) | MIC | 2-4 U/ml
CC1(C)S[C@@H]2[C@H](NC(=O)C3CC(Cl)C3)C(=O)N2[C@H]1C(=O)O (stereo partly drawn) | MIC | 2-4 U/ml
CC1(C)S[C@@H]2[C@H](NC(=O)C3(Cl)CCCC3=O)C(=O)N2[C@H]1C(=O)O (stereo partly drawn) | MIC | 2-4 U/ml
